assay: endothelial E-selectin expression blockers – imaging, HUVEC, immunofluorescence, MLSMR starter and 10KST1 sets, primary screen (AID 487); settings: HUVEC TNFalpha-induced E-selectin immunofluorescence imaging, at 2 µM; hits give high values;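 note: signal is fraction of cell area covered by stained E-selectin grains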
Could you label it condition met if measured inhibition is -70% or higher, and condition not met otherwise?

Input line: Could you please find out whether COc1ccc(-c2cc(C(F)F)n3ncc(C(=O)NCC4CCCO4)c3n2)cc1 (stereo not drawn) has inhibition that meets -70% or exceeds it?
Output line: condition met

Input line: Kindly determine if inhibition recorded for Cc1[nH]c(=O)[nH]c(=O)c1S(=O)(=O)Nc1ccc(Oc2ccccc2)cc1 is above or exactly -70%.
Output line: condition met

====

test: endothelial E-selectin expression blockers – imaging, HUVEC, immunofluorescence, MLSMR starter and 10KST1 sets, primary screen (AID 487); details: HUVEC TNFalpha-induced E-selectin immunofluorescence imaging, at 2 µM; hits give high values;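 note: signal is fraction of cell area covered by stained E-selectin grains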
readout.type: inhibition (%)
Give bare numbers, in %.

Each compound below has a reported value. Please supply its inhibition.
1. Oc1cccc2ccc(Nc3ccccn3)nc12
2. COc1cccc(NC(=O)Nc2cccs2)c1
3. CC1(C)CC(=O)C=C(NCCO)C1
4. CC(C(=O)N1CC2(C)CC1CC(C)(C)C2)N1C(=O)c2ccccc2C1=O (stereo not given)

Output line:
1. 11.4
2. 9.9
3. -18.5
4. -114

Input line: Sample CC(C)NC(=O)NC(=O)COc1cccc2c1OC(C)(C)C2 — what was its inhibition?
Output line: -16.4

====

Would you kindly list inhibition for each of these molecules?
test: endothelial E-selectin expression blockers – imaging, HUVEC, immunofluorescence, MLSMR starter and 10KST1 sets, primary screen (AID 487); conditions: HUVEC TNFalpha-induced E-selectin immunofluorescence imaging, at 2 µM; hits give high values;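 note: signal is fraction of cell area covered by stained E-selectin grains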
Numbers only, in %.

Some solved cases for reference:
molecule	readout.type	assay.value
COc1ccc(N2C(=O)CC(N3CCN(S(=O)(=O)c4c(F)cccc4F)CC3)C2=O)cc1OC (configuration not stated)	inhibition	-20.1
CSc1n[nH]c(NCc2ccccc2)n1	inhibition	-70.1
O=c1[nH]c2ccc(S(=O)(=O)N3CCN(C4CCCCC4)CC3)cc2[nH]c1=O	inhibition	-52.5
COc1ccc(OC)c(S(=O)(=O)Nc2ccccc2C(=O)O)c1	inhibition	35.6
CCOc1ccc(-c2nnc(N(CC)C(=O)C3CCC3)s2)cc1	inhibition	-32
COCCCNC(=O)CCc1nc(-c2ccccc2Cl)no1	inhibition	-130
Cc1cnnc2c1-c1nonc1CC2	inhibition	5.6
COc1ccc(-c2n[nH]c(C)c2-c2ccc(Cl)cc2)c(O)c1OC	inhibition	-45.3

// batch mode: one inhibition value per listed entry
1. CCC(=O)N1CCc2cc(OC)c(OC)cc2C1COc1ccc(C(=O)OC)cc1 (configuration not stated)
2. Cc1ccnc(NC(=O)CCC(=O)N(CC(=O)NC2CCCCC2)c2cccc(C)c2C)c1
3. CCn1c(CCNC(=O)c2ccc(OC)c(OC)c2)nc2ccccc21
4. CCSc1nc(-c2ccc(OC)cc2)ccc1C#N
5. CC(C)=CC/C=C1\CCC(C(=O)O)C(C(=O)O)C1 (configuration not stated)

Output line:
1. 36.5
2. 28.9
3. 3.1
4. -44.4
5. -30.8

====

Could you please report measured inhibition for the items listed next?
assay: TLR3 IRF3 reporter activation blockers – cell-based, poly I:C stimulus, luciferase, 10K MLSCN set, primary screen (AID 602277); conditions: HEK293-TLR3 RL24 IRF3 luciferase reporter, at 10 µM, hits give high values
Calls of active or inactive are those of the source.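 The calls were made as follows: active = inhibition of the reporter signal at or above 50%; inactive = inhibition below 50%.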 Where a SMILES comes first, the peptide text is derived from it. The star is where a group is joined. Boc = CC(C)(C)OC(=O)*

Some solved cases for reference:
molecule	readout.type	assay.value
CC(=O)Nc1ccc(S(=O)(=O)N2CCN(Cc3ccncc3)CC2)cc1	inhibition	16.4% (inactive)
O=C(CCn1c(=O)sc2ccccc21)Nc1cccnc1	inhibition	10.8% (inactive)
CC(C)(C)c1cc(C(=S)N2CCN(CCO)CC2)cc(C(C)(C)C)c1O	inhibition	29.9% (inactive)
Cc1cc2c(=O)n(CC(=O)N3CCN(c4ccccc4)CC3)cnc2s1	inhibition	14.5% (inactive)
O=C(CP(=O)(CO)CO)c1ccc(Cl)cc1	inhibition	14.2% (inactive)
O=C(N1CCCCCC1)N1CCN(C(=O)N2CCOCC2)CC1	inhibition	-6.18% (inactive)
CC(C)(C)OC(=O)N1CCOCCOCCN(C(=O)OC(C)(C)C)CCOCCOCC1	inhibition	6.47% (inactive)
CCNC(=O)Cn1cnc2c1c(=O)n(C)c(=O)n2C	inhibition	14.3% (inactive)
COc1ccccc1CNC(=O)C1CCN(S(=O)(=O)N2CCCCC2)CC1	inhibition	21.7% (inactive)
CCOc1ccc2cc(C#N)c(SCC(=O)N3CCCC3)nc2c1	inhibition	-15.2% (inactive)

Take each entry in turn and give its inhibition.
1. COc1ccc(Cl)cc1C(=O)n1nc(C)cc1C
2. Cc1cc(C)cc(-n2ccnc2SCC(=O)Nc2ccc3c(c2)OCCO3)c1

Output line:
-14.6% (inactive)
-4.03% (inactive)

Batch: inhibition for all items listed.
1. Cc1ccc(S(=O)(=O)c2nc(-c3ccco3)oc2SCC(=O)NCC2CCCO2)cc1 (stereo not drawn)
2. c1ccc2c3nnc4n(c-3nc2c1)CCCS4
3. Cc1ccccc1CS(=O)(=O)CCC(=O)N1CCN(c2ccc(N3CCOCC3)nn2)CC1
4. CC1=C(C#N)C(=O)NC(C)(C)C1
5. CNC(=O)CN(C#N)c1nc(N(C)C)nc(N(C)C)n1
6. CC(C)(C)OC(=O)N1CCCC1C(=O)N1CCCC1C(=O)N1CCCC1C(=O)O (stereo not drawn) (Boc-Pro-Pro-Pro-OH; configuration not given here)
7. CC(=O)c1cccc(NC(=O)c2ccc(NS(C)(=O)=O)cc2)c1
8. COCCCNC(=O)c1ccc2c(c1)OCO2

Output line:
1: 18.5% (inactive); 2: -19.6% (inactive); 3: 12.2% (inactive); 4: 21.4% (inactive); 5: 10.6% (inactive); 6: 15.3% (inactive); 7: 15.9% (inactive); 8: -37.6% (inactive)

Here are 3 molecules. What values of inhibition were reported for them?
1. Cc1nc(NCc2ccccn2)c2ccccc2n1
2. O=C(NC1CCCC1)c1ccc(S(=O)(=O)N2CCCC2)cc1
3. COc1cc(CC(=O)Nc2ncc(C)s2)cc(OC)c1OC

Output line:
-44.1% (inactive)
-26.9% (inactive)
18.5% (inactive)
